Here, each record is paired with measured melting point data.
metric: melting point

{"columns": ["molecule", "meas-value"],
 "data": [
  ["CNC1CCN(c2nc3c(cc2F)c(=O)c(C(=O)O)cn3CCF)C1 (stereo not drawn)", "243 to 245 °C"],
  ["Cc1c(-c2ccccc2)sc2c(Cl)c(Cl)c(O)cc12", "146 to 147 °C"],
  ["CC(C)n1c(=O)nc(-c2ccccc2)c2ccc(CO)cc21", "223 to 225 °C"],
  ["COC(=O)CNc1ccc(F)c(F)c1", "71 to 73 °C"],
  ["OCCC1CC(n2nnc3c(NC4CC4c4ccccc4)nc(Sc4ccc(C(F)(F)F)cc4)nc32)C(O)C1O (stereo not drawn)", "100 to 102 °C"],
  ["Cc1ncsc1C(=O)Nc1ccc(-n2nc(C(F)(F)F)c(Cl)c2C2CC2)nc1", "144 to 149 °C"],
  ["COc1cc(/C=C/C(=O)Nc2ccccc2C(=O)O)ccc1OCc1cn(CC(=O)Nc2ccccc2)nn1", "220 to 222 °C"],
  ["COc1cc(Br)c(OC)c2c1C=CCC2", "110 to 111 °C"],
  ["Cc1cc(-c2ccc(C#N)cc2)sc1C(=O)O", "248 to 253 °C"],
  ["N=C(N)Nc1nc2ccccc2n1Cc1ccccc1", "167 °C"],
  ["CCCn1c(CCOC)nc2c(N)nc3cc(OCCCN)ccc3c21", "165 to 166 °C"],
  ["COc1cc(C)nc(NC(=O)NS(=O)(=O)c2cccc3c2S(=O)(=O)C(C)(C)S3(=O)=O)n1", "191 to 200 °C"],
  ["CCN1CCC(C(=O)O)(S(=O)(=O)c2ccc(OC)cc2)CC1", "209 °C"]
]}

* * *

Here, each record is paired with measured melting point data.

{"columns": ["compound", "melting point"],
 "data": [
  ["CCN(CC)c1ccc(-c2cc(-c3ccc(C(=O)O)cc3)ccc2CC(O)CO)cc1C(C)(C)C (stereo unspecified)", "130 °C"],
  ["CCCN(CCC)C(=O)CNc1cc(C)nc(-c2ccccc2)n1", "107 to 108 °C"],
  ["Cc1c(C)c2c(c(C)c1N)C(C)C(C)(N1CCN(C)CC1)O2 (stereo unspecified)", "76 to 77 °C"],
  ["O=C(O)c1cc2c(F)ccc(Cl)c2s1", "248 to 249 °C"],
  ["CCOc1nn(Cc2ccc(OCc3ccc(-c4ccccc4)cn3)cc2)cc1CCC(=O)O", "127 to 128 °C"],
  ["OCC1(c2ccccc2)CCCC1", "41 to 44 °C"]
]}

* * *

metric: melting point

{"columns": ["molecule", "meas-value"],
 "data": [
  ["Cn1ncc2[nH]c3ccc(NC(=O)c4ccccc4)cc3c(=O)c21", "> 300 °C"],
  ["CN(CC#CC1=Cc2ccccc2Sc2ccc(Cl)cc21)CCO", "86 to 88 °C"],
  ["O=C(Nc1cccc(C(F)(F)F)c1)C1C(=O)C2CCC(C2)C1=O (centres undefined)", "68 to 69 °C"],
  ["CCCCCN1CC[C@@H](c2ccccc2C(F)(F)F)[C@H](CO)C1 (racemic)", "110 °C"],
  ["CCNc1nc(S(C)=O)ncc1C(=O)OCC (centres undefined)", "54 to 56 °C"],
  ["CS(=O)(=O)Nc1ccc(N)cn1", "199 to 202 °C"],
  ["N#CC(C(=O)Nc1ccc(Cl)cc1)C(=O)c1ccc[nH]1 (centres undefined)", "219 to 221 °C"],
  ["COC(=O)c1ccc(Cl)cc1NC(=O)CSc1cccc(C)c1", "75 to 77 °C"],
  ["O=C(NCCCOc1cccc(CN2CCCCC2)c1)Nc1ccc2c(c1)OCO2", "128 to 130 °C"],
  ["O=C(N1CCCCCC1)N1CC(Oc2cccc(C(F)(F)F)c2)C1", "64.5 to 66 °C"],
  ["CC(C)S(=O)(=O)c1ccc2c(c1)nc(CC1CC1)n2CC1CC1", "107 °C"],
  ["O=C(/C=C/c1c[nH]cn1)Oc1ccc([N+](=O)[O-])cc1", "220 to 222 °C"],
  ["CC1(C)[C@H]2CC[C@@H](CC(=O)O)[C@@H]1C2", "50 to 53 °C"],
  ["Cc1cc(C(O)(C(F)(F)F)C(F)(F)F)cc(C)c1NCCN", "158 to 161 °C"],
  ["CCCc1ncc(CN2CC=C(c3ccc(F)cc3)CC2)c(N)n1", "142 to 145 °C"],
  ["O=C1c2c(ccc(F)c2Cl)-n2cnc(-c3cccc(Cl)c3)c2[C@@H]2CCCN12", "238 to 239 °C"],
  ["O=C(O)Cc1csc2cc(-c3ccccc3)cn12", "114 to 116 °C"],
  ["COC(=O)Cc1cc(OC)ccc1OCc1ccc(OCc2nc(-c3ccccc3)oc2C)cc1", "160 to 161 °C"],
  ["COc1ccc(-c2ccc(C=NO)cc2)cc1OC1CCCC1", "153 °C"],
  ["COc1nc(O)c(C(=O)O)nc1Cl", "170 to 173 °C"],
  ["COC(=O)c1nc(-c2ccc(Cl)c(F)c2F)nc(N)c1/C=C/[Si](C)(C)C", "139 to 141 °C"],
  ["CC(NC(Nc1cc(Cl)cc(Cl)c1)=C(C#N)S(=O)(=O)c1ccc(Cl)cc1)C(C)(C)C (centres undefined)", "163 to 169 °C"],
  ["CC(=O)NCC=C1CCc2ccc3nc(C)oc3c21", "188 to 190 °C"],
  ["CCOC(=O)c1cn2c(-c3nn(C)c(OC(F)F)c3Cl)c(F)cc(Cl)c2n1", "140 to 143 °C"],
  ["O=C1CCc2c1cnn2Cc1ccccc1", "92 to 93 °C"],
  ["CCCSc1ccc2c3c(cccc13)C(=O)N2", "145 to 148 °C"],
  ["CN1Cc2c(-c3noc(CN4CCCCC4)n3)ncn2-c2ccc(F)cc2C1=O", "182 to 184 °C"],
  ["COc1ccc(C(=O)Nc2ccc(F)cc2)cc1NCc1cccs1", "179 to 181 °C"],
  ["O=C(c1ccc(I)cc1)c1ccc2c(c1)c(-c1cccc(Cl)c1)nc1nnnn12", "175 °C"],
  ["CCN(CC)Cn1cnc2c1c(=O)n(C)c(=O)n2C", "114 to 115 °C"],
  ["COCCc1nc2c(N)nc3cc(OCc4ccccc4)ccc3c2n1CC(C)(C)O", "185 to 186 °C"],
  ["CN1CCC(c2c[nH]c3ccc(OS(=O)(=O)c4ccc(F)c(F)c4F)cc23)CC1", "160 to 162 °C"],
  ["COc1ccc(-c2nc(OCC#N)c3cc(OC)ccc3c2[N+](=O)[O-])cc1", "192 to 194 °C"],
  ["COc1ccc(C(=C/C=C/C(=O)NCCCOc2cccnc2)c2ccc(OC)cc2)cc1", "146 to 147 °C"]
]}

src = a melting point compilation (Tetko et al.; mined from patent text by program, amines drawn as free bases though some values may be those of a salt)
